Assay: Partition coefficient (logP)
Type: physicochemical
Conditions: octanol/water
measurementType: logP

Request: Requested field: logP. Item: CC(C)(C)NCC(O)c1cc(Cl)c(N)c(Cl)c1 (stereo unspecified) [CLENBUTEROL]
Result: 2.71

* * *

Experiment: Partition coefficient of t-rotamer in octanol water system
Type: physicochemical
measurementType: logP
Form field (numeric): enter value without unit.

Request: Looking for the measured logP of CC(C)(C)NCC(O)c1cc(Cl)c(N)c(Cl)c1 (stereo unspecified) [CLENBUTEROL] , can you help?
Result: 2.87

* * *

Test: Partition coefficient of g-rotamer in octanol water system
Format: physicochemical
measurementType: logP

Request: Form field: reported logP of CC(C)(C)NCC(O)c1cc(Cl)c(N)c(Cl)c1 (stereo unspecified)
Result: 2.14

* * *

Assay: Partition coefficient of h-rotamer in octanol water system
Format: physicochemical
measurementType: logP

Request: Look up logP: CC(C)(C)NCC(O)c1cc(Cl)c(N)c(Cl)c1 (stereo unspecified) [CLENBUTEROL]
Result: 2.57
